For each of the molecules below, state its normalized growth.
# Procedure text: chemical genetic growth profiling, strain panel (AID 1159580);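 further: tested at 20 µM; growth read once vehicle control cultures reached saturation at 30 °C; 1 = growth at the plate median or of vehicle wells; lower values mean less growth of the strain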
# Experimental setup: S. cerevisiae deletion strains, growth OD, locus YLR403W, strain SFP1, stronger effect = lower value
About 2,000 (36%) of roughly 5,500 compounds were called active. Not shown: some 18% with an inconclusive outcome. Some of the results follow.
Give bare numbers.

molecule=O=C(/C=C/Sc1nc2ccccc2s1)c1ccc(Cl)cc1 observed_result=0.901
molecule=Cc1onc(-c2c(F)cccc2Cl)c1C(=O)ON=C1C2CC3CC(C2)CC1C3 observed_result=0.894
molecule=Cc1c(-c2ccnn2C(=O)c2ccco2)cnn1-c1ccccc1 observed_result=0.873
molecule=Cc1nc(-c2ccc(S(=O)(=O)Nc3ccc(Br)cc3Cl)s2)cs1 observed_result=0.863
molecule=CC(C)(C)c1ccc(C(=O)NNc2c(Cl)cccc2Cl)cc1 observed_result=0.893

Need normalized growth for each of these molecules.
1. Cc1c(C(=O)N(Cc2ccccc2)Cc2cccs2)cnn1-c1ccc(Cl)cc1
2. CC1(C)OC(=O)C(=Cc2cccn2-c2ccc(OC(F)(F)F)cc2)C(=O)O1
3. OC(CN1CCN(c2nc3ccc(Cl)cc3s2)CC1)Cn1ccc2ccccc21 (stereo unspecified)
4. Cc1ccc(NS(=O)(=O)c2ccc(-c3csc(C)n3)s2)c(C)c1
5. CCCCN(C)C(=O)c1cc([N+](=O)[O-])cc2c1-c1ccc([N+](=O)[O-])cc1C2=C(C#N)C#N

[0.915, 0.92, 0.926, 0.912, 0.966]

Find the recorded normalized growth belonging to Cc1onc(-c2c(Cl)cccc2Cl)c1C(=O)NC(C)(C)CC(C)(C)C and report it.
0.927
